System: PRKD2
assay-setup: concentration: 1 μM,replicates: in singlicate; n = 1;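 also: KINOMEscan kinase panel screen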
Class membership depends on %Inh alone; the intervals are band A = under 10%, band B = from 10% up to 70%, band C = 70% and over

Prompt line: Hi, small favor: classify CCN(CC)CCCCNc1ncc2cc(-c3c(Cl)cccc3Cl)c(NC(=O)NC(C)(C)C)nc2n1 by its %Inh when you get a moment.
Response line: band A

Prompt line: Category of COc1ccc(C[C@@H](CN)NC(=O)c2cc(Br)c(-c3ccnc4[nH]ccc34)s2)cc1.Cl.Cl , please.
Response line: band C

Prompt line: Which %Inh band matches Cc1ccc2c(-c3ccncc3)c(-c3ccc(F)cc3)nn2c1.Cl ?
Response line: band B

Prompt line: # bin lookup: classify Cl.Cl.Nc1nc(-c2ccc3c(N)n[nH]c3c2)cc(N2CCCC(NC(=O)c3ccccc3)C2)n1 (stereo not drawn) by its %Inh
Response line: band A

Prompt line: Categorize the following entry: C[C@@H](Oc1cc(-c2cnn(C3CCNCC3)c2)cnc1N)c1c(Cl)ccc(F)c1Cl
Response line: band B

====

Tested on: EGFR
assay-setup: concentration: 1 μM,replicates: in singlicate; n = 1
Recorded %Inh values for a group of compounds are listed next.
Report the value in % with no unit label.

Some compounds with known %Inh results, for comparison:
>  <compound>
C[C@@H](Oc1cc(-c2cnn(C3CCNCC3)c2)cnc1N)c1c(Cl)ccc(F)c1Cl

>  <%Inh [%]>
0

$$$$
>  <compound>
Cc1occc1-c1nc(N)c(OC[C@@H](N)Cc2c[nH]c3ccccc23)cc1-c1cc2c(C)n[nH]c2cn1 [GSK1660450]

>  <%Inh [%]>
97.2

$$$$
>  <compound>
Cl.Cl.Nc1nc(-c2ccc3c(N)n[nH]c3c2)cc(N2CCCC(NC(=O)c3ccccc3)C2)n1 (centres unmarked) [GSK2286775]

>  <%Inh [%]>
28

$$$$
>  <compound>
CC(C)N1C(=O)Cc2cc(Nc3ncc(C(F)(F)F)c(NCc4cccc(S(C)(=O)=O)c4)n3)ccc21

>  <%Inh [%]>
0

$$$$

Prompt line: # input compound: Cl.Cl.NC[C@H](Cc1ccc(C(F)(F)F)cc1)NC(=O)c1cc(Br)c(-c2ccnc3[nH]ccc23)s1 [GSK1487252] ; wanted: its %Inh
Response line: 30

====

System: PDPK1
assay-setup: concentration: 1 μM,replicates: in singlicate; n = 1
// NB: equality with 2% counts as F; only %Inh strictly below is T

>  <compound>
NC(=O)c1cc(-c2ccccc2)cc2c(C3CCNCC3)c[nH]c12

>  <discrete-label>
T

$$$$

Now, please, on to the next compound.
Prompt line: Bench note: check whether O=C(NCCCN1CCOC1=O)c1cnc(NCc2cc(Cl)ccc2Cl)nc1NC1CCCC1 shows %Inh below 2%
Response line: F

====

System: SRPK1
assay-setup: concentration: 1 μM,replicates: in singlicate; n = 1
property: %Inh (%)
Numbers only here, please. The scale is %.

>  <compound>
Cl.Cl.Nc1nc(-c2ccc3c(N)n[nH]c3c2)cc(N2CCCC(NC(=O)c3ccccc3)C2)n1 (stereo not shown)

>  <%Inh, %>
56

$$$$
>  <compound>
Cl.Cl.NC[C@H](CC1CCCCC1)NC(=O)c1cc(Br)c(-c2ccnc3[nH]ccc23)s1

>  <%Inh, %>
82

$$$$
>  <compound>
CCn1c(-c2nonc2N)nc2c(C#CC(C)(C)O)nc(OCCN)cc21.Cl.Cl

>  <%Inh, %>
0

$$$$

Proceeding to the next compound to report its %Inh.
Prompt line: Given Nc1nc(Nc2ccccc2)cc(-c2ccc3c(N)n[nH]c3c2)n1 , state its recorded %Inh.
Response line: 80
